Experiment: Particle size and polydispersity index (PDI) by Dynamic Light Scattering
Format: physicochemical
Conditions: blank-LNP; 48/40.5/10/1.5 mol % ionizable lipid/cholesterol/DSPC/DMG-PEG
recorded_endpoint: Blank-LNP PDI
Write the number on its own, no unit after it.

molecule	Blank-LNP PDI
CCCCCCCCOC/C=C\COC(=O)CCCCCCCCC(CCCCCCCCC(=O)OC(CCCCCCCC)CCCCCCCC)OC(=O)CCCN(C)C (centres unmarked) [Lipid #12]	0.04
CCCCCC/C=C/COC(=O)CCCCCCCCC(CCCCCCCCC(=O)OC/C=C/CCCCCC)OC(=O)CCCN(C)C [Lipid #9]	0.09
CCCCCCCCCOC(=O)CCCCCCCOc1ccc(OCCCCCCCC(=O)OC(CCCCCCCC)CCCCCCCC)cc1COC(=O)CCCN(C)C	0.13

Query: Report measured Blank-LNP PDI; entry is CCCCCCCCCCC(CCCCCCCCCC)C(=O)OCCCCCCOc1ccc(OCCCCCCOC(=O)C(CCCCCCCCCC)CCCCCCCCCC)c(COC(=O)CCCN(C)C)c1 [Lipid #8]
Reply: 0.13

Query: Report measured Blank-LNP PDI; entry is CC/C=C/CCCC(CCC/C=C/CC)OC(=O)CCCCCCCC(CCCCCCCC(=O)OC/C=C/CCCCCC)COC(=O)CCCN(C)C (centres unmarked) [Lipid #10]
Reply: 0.05

Query: Report measured Blank-LNP PDI; entry is CCCCCCOCCC/C=C/COC(=O)CCCCCCCCC(CCCCCCCCC(=O)OC/C=C/CCCOCCCCCC)OC(=O)CCCN(C)C [Lipid #11]
Reply: 0.09

Query: Report measured Blank-LNP PDI; entry is CCCCCCCCCOC(=O)CCCCCCCOc1ccc(OCCCCCCCC(=O)OC(CCCCCCCC)CCCCCCCC)c(COC(=O)CCCN(C)C)c1 [Lipid #5]
Reply: 0.2

Query: Report measured Blank-LNP PDI; entry is CCCCCCCCCOC(=O)CCCCCCCOc1ccc(OCCCCCCCC(=O)OCCCCCCCCC)c(COC(=O)CCCN(C)C)c1 [Lipid #2]
Reply: 0.09

* * *

Assay: Particle size and polydispersity index (PDI) by Dynamic Light Scattering
Assay type: physicochemical
Conditions: 48/40.5/10/1.5 mol %; blank-LNP added to lyophilized S2P RNA (55 ug/vial), N/P 7
recorded_endpoint: “Ready-to-use” S2P RNA formulation Size
State the value, then name its unit.

compound	“Ready-to-use” S2P RNA formulation Size
CCCCCCCCCOC(=O)CCCCCCCOc1ccc(OCCCCCCCC(=O)OC(CCCCCCCC)CCCCCCCC)c(COC(=O)CCCN(C)C)c1 [Lipid #5]	137 nm

Query: Report measured “Ready-to-use” S2P RNA formulation Size; entry is CCCCCCCCCOC(=O)CCCCCCCOc1ccc(OCCCCCCCC(=O)OCCCCCCCCC)c(COC(=O)CCCN(C)C)c1 [Lipid #2]
Reply: 211 nm

Query: Report measured “Ready-to-use” S2P RNA formulation Size; entry is CCCCCC/C=C/COC(=O)CCCCCCCCC(CCCCCCCCC(=O)OC/C=C/CCCCCC)OC(=O)CCCN(C)C [Lipid #9]
Reply: 280 nm

Query: Report measured “Ready-to-use” S2P RNA formulation Size; entry is CCCCCCCCOC/C=C\COC(=O)CCCCCCCCC(CCCCCCCCC(=O)OC(CCCCCCCC)CCCCCCCC)OC(=O)CCCN(C)C (stereo not shown) [Lipid #12]
Reply: 172 nm
